Measured pIC50 by item
Target: Disintegrin and metalloproteinase domain-containing protein 17 (Homo sapiens, UniProt P78536)
Sequence (P78536 whole entry, the tested form may be a part): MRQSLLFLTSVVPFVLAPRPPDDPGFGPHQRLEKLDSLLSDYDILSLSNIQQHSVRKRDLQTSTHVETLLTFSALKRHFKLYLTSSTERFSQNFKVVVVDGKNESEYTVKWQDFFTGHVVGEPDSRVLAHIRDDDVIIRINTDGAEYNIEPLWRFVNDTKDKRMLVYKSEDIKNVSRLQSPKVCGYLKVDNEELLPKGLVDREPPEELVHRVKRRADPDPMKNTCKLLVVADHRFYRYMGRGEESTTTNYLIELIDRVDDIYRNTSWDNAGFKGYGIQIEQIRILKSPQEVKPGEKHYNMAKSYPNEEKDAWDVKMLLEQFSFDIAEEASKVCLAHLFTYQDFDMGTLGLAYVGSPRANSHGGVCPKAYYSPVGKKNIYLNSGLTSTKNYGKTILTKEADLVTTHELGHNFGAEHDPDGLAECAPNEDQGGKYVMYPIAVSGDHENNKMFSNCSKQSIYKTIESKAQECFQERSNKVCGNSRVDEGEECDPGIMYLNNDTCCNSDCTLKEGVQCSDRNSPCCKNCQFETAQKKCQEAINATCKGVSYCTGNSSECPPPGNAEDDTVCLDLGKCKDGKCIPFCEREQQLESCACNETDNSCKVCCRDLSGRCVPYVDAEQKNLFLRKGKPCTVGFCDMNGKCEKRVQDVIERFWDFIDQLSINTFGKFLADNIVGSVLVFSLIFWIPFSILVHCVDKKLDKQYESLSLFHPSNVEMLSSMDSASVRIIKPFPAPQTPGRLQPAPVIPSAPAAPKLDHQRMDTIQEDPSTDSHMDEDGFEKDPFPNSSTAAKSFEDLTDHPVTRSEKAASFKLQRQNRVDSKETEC
Assay: Inhibition of TACE in human PBMC assessed as reduction in LPS-induced TNFalpha production incubated overnight by HTRF assay
Format: cell-based
pIC50: −log10 of the molar value.
observed-property: pIC50

{"columns": ["molecular-string", "observed-property", "result-number"],
 "data": [
  ["Cc1cc(COc2ccc(S(=O)(=O)NC3(CC(=O)NO)CCC3)cc2)c2ccccc2n1", "pIC50", 7.89],
  ["CCN(C1(C(=O)NO)CN(C(=O)C(C)C)C1)S(=O)(=O)c1ccc(OCc2cc(C)nc3ccccc23)cc1", "pIC50", 7.43],
  ["CC(=O)N1CC(CC(=O)NO)(NS(=O)(=O)c2ccc(SCc3cc(C)nc4ccccc34)cc2)C1", "pIC50", 6.14],
  ["Cc1cc(COc2ccc(S(=O)(=O)N(C(C)C)C3(C(=O)NO)CN(C(=O)C(C)C)C3)cc2)c2ccccc2n1", "pIC50", 6.10]
]}

====

Biological target: Disintegrin and metalloproteinase domain-containing protein 17 (Homo sapiens)
Experiment: Inhibition of TACE in NHEK assessed as reduction in LPS/TPA-stimulated TNFalpha production preincubated for 1 hr followed by LPS/TPA stimulation for 24 hrs by HTRF assay
pIC50: −log10 of the molar value.

{"columns": ["molecular-string", "pIC50"],
 "data": [
  ["Cc1cc(COc2ccc(S(=O)(=O)N(C)C3(C(=O)NO)CN(C(=O)C(C)C)C3)cc2)c2ccccc2n1", 8.52],
  ["Cc1cc(COc2ccc(S(=O)(=O)N(C)C3(C(=O)NO)CN(C(=O)CC(C)C)C3)cc2)c2ccccc2n1", 7.70]
]}

====

Assay: Stability of the compound in propylene glycol/ethanol96 at 0.1 mg/ml measured up to 3 months by HPLC analysis
Assay type: physicochemical
Settings: read-out: Stability
Measured remaining at 0.1 mg/ml by item

{"columns": ["molecular-string", "remaining at 0.1 mg/ml, %"],
 "data": [
  ["CC(=O)N1CC2(C1)CC(NS(=O)(=O)c1ccc(OCc3cc(C)nc4ccccc34)cc1)(C(=O)NO)C2", 95],
  ["Cc1cc(COc2ccc(S(=O)(=O)NC[C@@H](C(=O)NO)N3CCCCC3)cc2)c2ccccc2n1", 89],
  ["Cc1cc(COc2ccc(S(=O)(=O)N(C)C3(C(=O)NO)CN(C(=O)CC(C)C)C3)cc2)c2ccccc2n1", 99],
  ["Cc1cc(COc2ccc(S(=O)(=O)N(C)C3(C(=O)NO)CN(C(=O)C(C)C)C3)cc2)c2ccccc2n1", 99],
  ["CC(=O)N1CC(CC(=O)NO)(NS(=O)(=O)c2ccc(OCc3cc(C)nc4ccccc34)cc2)C1", 98]
]}

====

Experiment: Aqueous solubility of the compound in PBS at pH 7.4 at 20 degC after 24 hrs by HPLC analysis
Format: physicochemical

{"columns": ["molecular-string", "solubility at 24 h"],
 "data": [
  ["Cc1cc(COc2ccc(S(=O)(=O)N(C)C3(C(=O)NO)CN(C(=O)CC(C)C)C3)cc2)c2ccccc2n1", "62 µM"],
  ["CC(=O)N1CC2(C1)CC(NS(=O)(=O)c1ccc(OCc3cc(C)nc4ccccc34)cc1)(C(=O)NO)C2", "84 µM"],
  ["CCCCN1CC(CC(=O)NO)(NS(=O)(=O)c2ccc(OCc3cc(C)nc4ccccc34)cc2)C1", "70 µM"],
  ["Cc1cc(COc2ccc(S(=O)(=O)N(C)C3(C(=O)NO)CN(C(=O)C(C)C)C3)cc2)c2ccccc2n1", "84 µM"]
]}

====

Measured solubility at 24 h by item
Experiment: Solubility of the compound in propylene glycol/ethanol96 at 30 mg/ml after 24 hrs by UV-spectrometric analysis
Assay type: physicochemical
Settings: propylene glycol/ethanol96

{"columns": ["molecular-string", "solubility at 24 h, µM"],
 "data": [
  ["Cc1cc(COc2ccc(S(=O)(=O)NC3(CC(=O)NO)COC3)cc2)c2ccccc2n1", 200],
  ["CC(=O)N1CC(CC(=O)NO)(NS(=O)(=O)c2ccc(OCc3cc(C)nc4ccccc34)cc2)C1", 800],
  ["Cc1cc(COc2ccc(S(=O)(=O)N(C(C)C)C3(C(=O)NO)CN(C(=O)C(C)C)C3)cc2)c2ccccc2n1", 2200],
  ["CC(=O)N1CCC(NS(=O)(=O)c2ccc(OCc3cc(C)nc4ccccc34)cc2)(C(=O)NO)CC1", 59000],
  ["Cc1cc(COc2ccc(S(=O)(=O)NC3(CC(=O)NO)CN(C(=O)C(C)(C)N(C)C)C3)cc2)c2ccccc2n1", 11000],
  ["CC(=O)N1CC2(C1)CC(CC(=O)NO)(NS(=O)(=O)c1ccc(OCc3cc(C)nc4ccccc34)cc1)C2", 3000],
  ["Cc1cc(COc2ccc(S(=O)(=O)NC3(CC(=O)NO)CC3)cc2)c2ccccc2n1", 1600],
  ["Cc1cc(COc2ccc(S(=O)(=O)NCCC(=O)NO)cc2)c2ccccc2n1", 4100],
  ["CC(=O)N1CC2(C1)CC(NS(=O)(=O)c1ccc(OCc3cc(C)nc4ccccc34)cc1)(C(=O)NO)C2", 17000],
  ["Cc1cc(COc2ccc(S(=O)(=O)NC3(CC(=O)NO)CN(C(=O)OC(C)C)C3)cc2)c2ccccc2n1", 1100],
  ["CC(=O)N1CC(CC(=O)NO)(NS(=O)(=O)c2ccc(OCc3cc(C)nc4ccccc34)c(C)c2)C1", 400],
  ["CCN(C1(C(=O)NO)CN(C(=O)C(C)C)C1)S(=O)(=O)c1ccc(OCc2cc(C)nc3ccccc23)cc1", 44000],
  ["Cc1cc(COc2ccc(S(=O)(=O)NC3(C(=O)NO)CCCCC3)cc2)c2ccccc2n1", 11000],
  ["CC(=O)N1CC(CC(=O)NO)(NS(=O)(=O)c2ccc(SCc3cc(C)nc4ccccc34)cc2)C1", 1000],
  ["Cc1cc(COc2ccc(S(=O)(=O)NC3(CC(=O)NO)CN(C(=O)N4CCCCC4)C3)cc2)c2ccccc2n1", 500],
  ["Cc1cc(COc2ccc(S(=O)(=O)NC3(CC(=O)NO)CN(CCC(F)(F)F)C3)cc2)c2ccccc2n1", 3400],
  ["Cc1cc(COc2ccc(S(=O)(=O)N(C)C3(C(=O)NO)CN(C(=O)CC(C)C)C3)cc2)c2ccccc2n1", 45000]
]}

====

Assay: Intrinsic clearance in human hepatocytes assessed per million cells at 1 uM by LC-MS/MS analysis
Format: ADME, cell-based, Hepatocyte
Settings: human hepatocytes, read-out: CLH
Measured hepatocyte CLint at 1 µM by item

{"columns": ["molecular-string", "hepatocyte CLint at 1 µM"],
 "data": [
  ["Cc1cc(COc2ccc(S(=O)(=O)NC3(C(=O)NO)CN(C(=O)C(C)C)C3)cc2)c2ccccc2n1", "< 5 µL/min/1e6 cells"],
  ["CC(=O)N1CC2(C1)CC(NS(=O)(=O)c1ccc(OCc3cc(C)nc4ccccc34)cc1)(C(=O)NO)C2", "< 5 µL/min/1e6 cells"],
  ["CC(=O)N1CC(CC(=O)NO)(NS(=O)(=O)c2ccc(OCc3cc(C)nc4ccccc34)cc2)C1", "< 5 µL/min/1e6 cells"]
]}
